- EXPERIMENTAL_TARGET: UniProtKB P00533
- Sequence (P00533 25-1210): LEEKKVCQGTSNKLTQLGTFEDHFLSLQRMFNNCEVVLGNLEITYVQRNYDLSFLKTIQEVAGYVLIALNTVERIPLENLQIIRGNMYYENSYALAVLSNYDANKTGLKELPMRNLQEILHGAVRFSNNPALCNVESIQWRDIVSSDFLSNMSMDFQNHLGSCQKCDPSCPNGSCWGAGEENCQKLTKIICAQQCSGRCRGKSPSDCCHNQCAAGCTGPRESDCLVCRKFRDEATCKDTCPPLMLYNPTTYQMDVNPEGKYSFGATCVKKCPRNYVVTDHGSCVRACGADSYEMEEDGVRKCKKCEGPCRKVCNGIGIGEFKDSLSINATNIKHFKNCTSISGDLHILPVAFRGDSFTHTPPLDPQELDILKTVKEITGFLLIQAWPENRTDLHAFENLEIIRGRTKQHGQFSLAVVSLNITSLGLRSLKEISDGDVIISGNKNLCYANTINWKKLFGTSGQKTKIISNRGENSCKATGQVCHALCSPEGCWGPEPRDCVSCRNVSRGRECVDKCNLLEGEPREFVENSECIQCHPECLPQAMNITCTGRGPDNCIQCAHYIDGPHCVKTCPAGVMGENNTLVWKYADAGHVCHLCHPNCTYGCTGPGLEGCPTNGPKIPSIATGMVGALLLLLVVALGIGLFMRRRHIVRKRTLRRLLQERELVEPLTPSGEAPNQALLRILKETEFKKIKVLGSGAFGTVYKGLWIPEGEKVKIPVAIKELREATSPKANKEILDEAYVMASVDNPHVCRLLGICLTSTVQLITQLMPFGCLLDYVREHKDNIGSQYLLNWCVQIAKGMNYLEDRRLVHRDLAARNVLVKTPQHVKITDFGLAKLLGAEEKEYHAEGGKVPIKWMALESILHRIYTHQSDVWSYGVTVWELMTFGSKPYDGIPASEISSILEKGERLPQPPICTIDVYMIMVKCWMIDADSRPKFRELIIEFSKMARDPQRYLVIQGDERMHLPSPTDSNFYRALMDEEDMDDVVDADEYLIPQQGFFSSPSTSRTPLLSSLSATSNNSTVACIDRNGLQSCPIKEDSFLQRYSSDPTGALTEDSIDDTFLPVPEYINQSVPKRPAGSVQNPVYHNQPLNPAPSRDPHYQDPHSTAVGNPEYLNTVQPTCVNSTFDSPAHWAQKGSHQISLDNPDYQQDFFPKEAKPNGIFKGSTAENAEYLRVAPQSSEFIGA
Listing: Kd of selected molecules
VALUE_TYPE: Kd

1) C=CC(=O)N[C@@H]1CN(c2nc(Nc3cn(CCOCCOCCOCCOCCNC(=O)c4ccc(Nc5ncc6c(n5)N(C5CCCC5)[C@H](CC)C(=O)N6C)c(OC)c4)nc3OC)c3ncn(C)c3n2)C[C@H]1F :: 50 to 500 nM
2) CC[C@@H]1C(=O)N(C)c2cnc(Nc3ccc(C(=O)NCCOCCOCCOCCOCCOCCOCCN(C)C/C=C/C(=O)Nc4cc(Nc5nccc(-c6cn(C)c7ccccc67)n5)c(OC)cc4N(C)CCN(C)C)cc3OC)nc2N1C1CCCC1 :: > 2500 nM
3) C=CC(=O)N[C@@H]1CN(c2nc(Nc3cn(CCCON(C)C(=O)N4N=C(c5cc(F)ccc5F)S[C@@]4(CCCN)c4ccccc4)nc3OC)c3ncn(C)c3n2)C[C@H]1F :: < 50 nM
4) C=CC(=O)Nc1cc(Nc2nccc(-c3cn(C)c4ccccc34)n2)c(OC)cc1N(C)CCN(C)CCOCCOCCOc1ccc(CNc2cc(N3CCCC[C@H]3CCO)nc3c(CC)cnn23)cn1 :: 50 to 500 nM
5) CCC1C(=O)N(C)c2cnc(Nc3ccc(C(=O)NCCOCCOCCN(C)CC=CC(=O)NC4CN(c5nc(Nc6cn(C)nc6OC)c6ncn(C)c6n5)CC4F)cc3OC)nc2N1C1CCCC1 (stereo not drawn) :: > 2500 nM
6) COc1cc(N(C)CCN(C)C)c(NC(=O)/C=C/CN(C)CCCN2CCN(CCCON(C)C(=O)N3N=C(c4cc(F)ccc4F)S[C@@]3(CCCN)c3ccccc3)CC2)cc1Nc1nccc(-c2cn(C)c3ccccc23)n1 :: 500 to 2500 nM
7) C=CC(=O)N[C@@H]1CN(c2nc(Nc3cn(CCOCCOCCOCCOCCNS(=O)(=O)c4ccc(Nc5ncc(Br)c(Nc6cccc(F)c6C(N)=O)n5)cc4)nc3OC)c3ncn(C)c3n2)C[C@H]1F :: < 50 nM
8) C=CC(=O)Nc1cc(Nc2nccc(-c3cn(C)c4ccccc34)n2)c(OC)cc1N(C)CCN(C)CCCN1CCN(CCCNC(=O)c2ccc(Nc3ncc4c(n3)N(C3CCCC3)[C@H](CC)C(=O)N4C)c(OC)c2)CC1 :: 50 to 500 nM
9) CC[C@@H]1C(=O)N(C)c2cnc(Nc3ccc(C(=O)NCCOCCOCCOCCOCCOCCOCCN(C)C/C=C/C(=O)NC4CN(c5nc(Nc6cn(C)nc6OC)c6ncn(C)c6n5)C[C@H]4F)cc3OC)nc2N1C1CCCC1 (stereo partly drawn) :: 500 to 2500 nM

----------
Listing: IC50 of selected compounds
- EXPERIMENTAL_TARGET: KRAS G12C (Homo sapiens, UniProt P01116, G12C)
- Construct: Kras (aa 2-169), GST
- Sequence (P01116 2-169 isoform P01116-2 G12C): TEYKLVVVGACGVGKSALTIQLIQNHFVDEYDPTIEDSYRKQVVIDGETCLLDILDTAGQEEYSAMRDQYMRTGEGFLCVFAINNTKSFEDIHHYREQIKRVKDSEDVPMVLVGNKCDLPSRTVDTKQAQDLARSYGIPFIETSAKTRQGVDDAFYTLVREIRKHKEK
- ASSAY: KRAS G12C nucleotide exchange assay (SOS1 mediated, HTRF)
- CONDITION_PARAMETERS: 1 hr pre-incubation at RT, read-out: IC50 (inhibition of KRas G12C)
VALUE_TYPE: IC50

1. C=C(F)C(=O)N1CCN(c2nc(OC[C@@H]3CCCN3CCCOCCOCCNC(=O)c3ccc(Nc4ncc5c(n4)N(C4CCCC4)[C@H](CC)C(=O)N5C)c(OC)c3)nc3c2CCN(c2cccc4cccc(Cl)c24)C3)C[C@@H]1CC#N :: < 100 nM
2. C=C(F)C(=O)N1CCN(c2nc(OC[C@@H]3CCCN3CCCN(C)C(=O)N3N=C(c4cc(F)ccc4F)S[C@@]3(CCCN)c3ccccc3)nc3c2CCN(c2cccc4cccc(Cl)c24)C3)C[C@@H]1CC#N :: < 100 nM
3. CCc1cnn2c(NCc3ccc(OCCOCCOCCOCCOCCOC/C=C/C(=O)N4CCN(c5nc(OC[C@@H]6CCCN6C)nc6c5CCN(c5cccc7cccc(Cl)c57)C6)C[C@@H]4CC#N)nc3)cc(N3CCCCC3CCO)nc12 (stereo partly shown) :: 100 to 1000 nM
4. CC[C@@H]1C(=O)N(C)c2cnc(Nc3ccc(C(=O)NCCOCCOCCN(C)C/C=C/C(=O)N4CCN(c5nc(OC[C@@H]6CCCN6C)nc6c5CCN(c5cccc7cccc(Cl)c57)C6)C[C@@H]4CC#N)cc3OC)nc2N1C1CCCC1 :: < 100 nM

The reported numbers originate from patent US20250032623A1.
